Ref: patent US10577362B2

# viability at 10 µM values compiled below
system: HCT-116 (colorectal carcinoma) cell line; experiment: CellTiter-Glo luminescent cell viability assay, HCT-116; format: cell-based, human; conditions: Homo sapiens; HCT-116, compound at 10 μM, 72 h
Expressed in %, but write only the number.

Sample records with viability at 10 µM:
Cc1ccc(OC2CCN(c3c(C#N)c(NCc4ccc(Cl)cc4)nc4ccccc34)CC2)cc1 [Compound 2944CN] = 29.1
Cc1nccnc1OC1CCN(c2c(C#N)c(NCc3ccc(Cl)cc3)nc3ccccc23)C1 (stereo not drawn) [Compound 3362CN] = 31.4
N#Cc1c(NCc2ccc(Cl)cc2)nc2ccccc2c1N1CCCC(Oc2ccc(F)cc2)C1 (stereo not drawn) [Compound 3238CN] = 85.1
N#Cc1c(NCc2ccc(Cl)cc2)nc2ccccc2c1N1CCC(N2CCCC2)C1 (stereo not drawn) [Compound 148CN] = 92.2

Considering Cc1nccnc1OC1CCCN(c2c(C#N)c(NCc3ccc(Cl)cc3)nc3ccccc23)C1 (stereo not drawn) [Compound 3328CN] , its viability at 10 µM with HCT-116 (colorectal carcinoma) cell line was recorded as 82.3

Considering CNC1CCCN(c2c(C#N)c(NCc3ccc(Cl)cc3)nc3ccccc23)C1 (stereo not drawn) [Compound 3158CN] , its viability at 10 µM with HCT-116 (colorectal carcinoma) cell line was recorded as 0.4

Considering N#Cc1c(NCc2ccc(Cl)cc2)nc2ccccc2c1N1CCC(Oc2ccc(Cl)cc2)C1 (stereo not drawn) [Compound 3336CN] , its viability at 10 µM with HCT-116 (colorectal carcinoma) cell line was recorded as 92

---

system: Huh7 (hepatocellular carcinoma) cell line; assay: CellTiter-Glo luminescent cell viability assay, Huh7; format: cell-based, human; conditions: Homo sapiens, Huh-7; Huh7, compound at 4 μM, 72 h
Field: class. Source value: viability at 4 µM. Ranges: 1 = under 70%, 2 = from 70% up to 90%, 3 = 90% and over

Cc1ccc(CNc2nc3ccccc3c(N3CCC(NC(C)(C)C)CC3)c2C#N)cc1 [Compound 3288CN] = 1
CC(C)(C)NC1CCN(c2c(C#N)c(Nc3ccccc3C(F)(F)F)nc3ccccc23)CC1 [Compound 3254CN] = 1
Cc1ccc(OC2CCN(c3c(C#N)c(NCc4ccc(Cl)cc4)nc4ccccc34)C2)cc1 (centres unmarked) [Compound 3332CN] = 3

Hey, which category is CC(C)(C)NC1CCN(c2c(F)c(Nc3cccc(Nc4nccc(C(F)(F)F)n4)c3)nc3ccccc23)CC1 [Compound 540F] in, do you know? 1

Hey, which category is Cc1nccnc1OC1CCN(c2c(C#N)c(NCc3ccc(Cl)cc3)nc3ccccc23)CC1 [Compound 2970CN] in, do you know? 1

Hey, which category is CC(C)(C)NC1CCN(c2c(C#N)c(Nc3ccccc3)nc3ccccc23)CC1 [Compound 3246CN] in, do you know? 1

Hey, which category is Cc1cccc2c(N3CCC(NC(C)(C)C)CC3)c(C#N)c(NCc3ccc(Cl)cc3)nc12 [Compound 414CN] in, do you know? 2

Hey, which category is CN(C)C1CCN(c2c(C#N)c(NCc3ccc(Cl)cc3)nc3ccccc23)CC1 [Compound 3184CN] in, do you know? 2

Hey, which category is N#Cc1c(NCc2ccc(Cl)cc2)nc2ccccc2c1N1CCC(NC2CCCC2)CC1 [Compound 3178CN] in, do you know? 1
